# testTarget: T1, MPDZ_5, O75970
# T1 sequence (O75970 695-796, limits assumed, looked up): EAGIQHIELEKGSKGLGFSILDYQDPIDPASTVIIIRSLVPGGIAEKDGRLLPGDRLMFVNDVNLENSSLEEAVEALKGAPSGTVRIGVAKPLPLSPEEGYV
# assayExplanation: holdup assay
# Set-up: key: below the threshold = too weak to quantify, mostly under pKd 3.1 to 4
# measurementContext: plain residues with an end cap or a label only (N-terminal biotin on a linker: ado-ado)
propertyName: pKd

Illustrative cases are given below, each with its answer.
Value of pKd reported for the binder ARGPPRESEV [FAM110D, Q8TAY7] is below the threshold

For PYSESDDDWC [CACNA1A, O00555] the binder record lists pKd as below the threshold

Entry PYPTADHMLA [JUP, P14923] , pKd reported as below the threshold

Value of pKd reported for the binder NNNVVKVDSV [MTNR1A, P48039] is below the threshold

Short answer for VLYPREGTEV [FOXI1, Q12951] : pKd was 3.66

pKd recorded for this binder, TNSRHGETTV [FZD2, Q14332] , is below the threshold

Entry SRSVVESDEL [MYPN, Q86TC9] , pKd reported as below the threshold

// recorded pKd for QSYPSKHDYV [CLDN18, P56856] : below the threshold

Continuing:
EDLEDEWEVI [TECPR2, O15040] yielded pKd of below the threshold

So for DTKNYKQTSV [CRIPT, Q9P021] , the logged pKd turned out to be below the threshold

# pKd (binder: QKAPTKEFYA [SDC2, P34741] ) is 3.48

So for SLNANEVEWF [RNF130, Q86XS8] , the logged pKd turned out to be below the threshold

For TISFTQTSQF [SLC1A1, P43005] the binder record lists pKd as below the threshold

Reference for the values: paper PMC9482650
